Each entry below carries its recorded Population Tubulin-Different-Phenotype (%).
System: U2OS
experiment notes: Multiplex assay against U2OS
Format: toxicity, cell-based
condition notes: human, 12 h, 10 µM, compound concentration 10 uM, replicate 2
All answers are understood in %, so give the number only.

# compound, test result
records = [
    ("CCn1c(-c2nonc2N)nc2cnc(Oc3cccc(NC(=O)c4ccc(OCCN5CCOCC5)cc4)c3)cc21 [GSK-269962A]", 100),
    ("CCCn1c(=O)c2[nH]c(C34CC5CC(CC3C5)C4)nc2n(CCC)c1=O", 100),
    ("CNC(=O)c1cc(Oc2ccc(NC(=O)Nc3cc(C(C)(C)C)nn3-c3ccc4ncccc4c3)c(F)c2)ccn1", 98),
    ("COc1cc2c(Nc3ccc(NC(=O)c4ccccc4)cc3)ncnc2cc1OCCCN1CCOCC1", 14),
    ("Cc1nc(Cc2cccc(C(F)(F)F)c2)sc1-c1ccc(C(N)=O)nc1 [TP-024n]", 11),
]

Looking for the measured Population Tubulin-Different-Phenotype (%) of "CC(C)(C)c1cnc(CSc2cnc(NC(=O)C3CCNCC3)s2)o1" , can you help?
25

Looking for the measured Population Tubulin-Different-Phenotype (%) of "N#Cc1cnc(Nc2cc(NC[C@H]3CNCCO3)c(C(F)(F)F)cn2)cn1" , can you help?
16

Looking for the measured Population Tubulin-Different-Phenotype (%) of "Cl.Cl.Nc1ncnc2c1c(-c1cccc(OCc3ccccc3)c1)cn2[C@H]1C[C@@H](CN2CCC2)C1" , can you help?
97

Looking for the measured Population Tubulin-Different-Phenotype (%) of "c1ccc2oc(-c3csc(C4CCN(Cc5nc6ncccc6[nH]5)CC4)n3)cc2c1" , can you help?
34

Looking for the measured Population Tubulin-Different-Phenotype (%) of "COc1ccc(NS(=O)(=O)c2sc3ccc(Cl)cc3c2C)cc1N1CCNCC1.Cl" , can you help?
94

Looking for the measured Population Tubulin-Different-Phenotype (%) of "Nc1ccc(C(=O)Nc2cccc(-c3nc(N4CCOCC4)c4oc5ncccc5c4n3)c2)cn1" , can you help?
90

Looking for the measured Population Tubulin-Different-Phenotype (%) of "Nc1nc2c(c(N3CCNCC3)n1)CCC1=C2[C@@H]2CCCC[C@@H]2O1" , can you help?
92

Looking for the measured Population Tubulin-Different-Phenotype (%) of "CCOc1cc2ncc(C#N)c(Nc3ccc(OCc4cccc(F)c4)c(Cl)c3)c2cc1NC(=O)/C=C/CN(C)C" , can you help?
88

Looking for the measured Population Tubulin-Different-Phenotype (%) of "CC(C)N1CCC(C)(C)c2cc(C#Cc3ccc(C(=O)O)cc3)ccc21" , can you help?
28

Looking for the measured Population Tubulin-Different-Phenotype (%) of "Cl.Cl.NC1(c2ccc(-c3nc4ccn5c(=O)[nH]nc5c4cc3-c3ccccc3)cc2)CCC1" , can you help?
66

Looking for the measured Population Tubulin-Different-Phenotype (%) of "CNC(=O)c1nn(C)c2c1C(C)(C)Cc1cnc(Nc3ccc(N4CCN(C)CC4)cc3)nc1-2" , can you help?
91

Looking for the measured Population Tubulin-Different-Phenotype (%) of "CNc1oc(-c2cccc3ccccc23)nc1C#N" , can you help?
24

Looking for the measured Population Tubulin-Different-Phenotype (%) of "CN(C)CCOc1ccc(-c2nc(-c3ccncc3)c(-c3ccc4c(c3)CC/C4=N\O)[nH]2)cc1" , can you help?
33
